# Test system: Escherichia coli TOP10
# assay summary: shrunken log2 fold change of peptide-encoding DNA abundance (4.5 h post-induction vs induction); higher = less antimicrobial activity (less host growth inhibition)
# condition notes: time post-induction: 4.5 h; library: site-saturation at positions 5, 18, 19, 20
assay endpoint: shrunken log2 fold change

* RRIRVRPPRLPRPRPRPWVSPRP | -0.278
* RRIRFRPPRLPRPRPRPFTLPRP | 0.0331
* RRIRVRPPRLPRPRPRPDLPPRP | -0.377
* RRIRVRPPRLPRPRPRPWDMPRP | -0.184
* RRIRCRPPRLPRPRPRPAKKPRP | 0.00097
* RRIRTRPPRLPRPRPRPDTVPRP | -0.0391
* RRIRIRPPRLPRPRPRPAWSPRP | -0.191
* RRIRQRPPRLPRPRPRPCFYPRP | -0.269

###

# Tested on: Escherichia coli TOP10
# assay summary: shrunken log2 fold change of peptide-encoding DNA abundance (4.5 h post-induction vs induction); higher = less antimicrobial activity (less host growth inhibition)
# condition notes: time post-induction: 4.5 h; library: site-saturation at positions 5, 18, 19, 20
assay endpoint: shrunken log2 fold change

• RRIRDRPPRLPRPRPRPMWRPRP = 0.309
• RRIRCRPPRLPRPRPRPYSSPRP = 0.00688
• RRIRCRPPRLPRPRPRPRPRPRP = 0.83
• RRIRSRPPRLPRPRPRPGDQPRP = 0.0164
• RRIRRRPPRLPRPRPRPNLNPRP = -0.0389
• RRIRRRPPRLPRPRPRPIPEPRP = 0.12
• RRIRKRPPRLPRPRPRPNIQPRP = -0.0271
• RRIRTRPPRLPRPRPRPFGKPRP = -0.00963
• RRIRQRPPRLPRPRPRPVVLPRP = -0.227
• RRIRVRPPRLPRPRPRPCQSPRP = 0.0215
• RRIRRRPPRLPRPRPRPEITPRP = 0.0455
• RRIRARPPRLPRPRPRPFQEPRP = 0.127
• RRIRTRPPRLPRPRPRPSYVPRP = -0.305
• RRIRLRPPRLPRPRPRPVDQPRP = 0.194
• RRIRHRPPRLPRPRPRPNLRPRP = 0.00562

###

# System: Escherichia coli TOP10;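 further: peptides expressed intracellularly from a pBAD plasmid library in pooled LB shake-flask culture, induced with 0.3% L-arabinose, DNA abundance read by NGS, three biological replicates, DESeq2 with apeglm shrinkage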
# assay summary: shrunken log2 fold change of peptide-encoding DNA abundance (4.5 h post-induction vs induction); higher = less antimicrobial activity (less host growth inhibition)
# condition notes: time post-induction: 4.5 h; library: site-saturation at positions 5, 18, 19, 20
Label rule, in plain words: shrunken log2 fold change of 0.1 and up is Criterion met, under 0.1 is Criterion not met.

- RRIRSRPPRLPRPRPRPLVMPRP: Criterion not met
- RRIRYRPPRLPRPRPRPTTHPRP: Criterion not met
- RRIRLRPPRLPRPRPRPEVVPRP: Criterion not met
- RRIRYRPPRLPRPRPRPEKHPRP: Criterion not met
- RRIRMRPPRLPRPRPRPYHRPRP: Criterion not met
- RRIRLRPPRLPRPRPRPAMDPRP: Criterion met
- RRIRYRPPRLPRPRPRPIFEPRP: Criterion not met
- RRIRERPPRLPRPRPRPCWWPRP: Criterion met
- RRIRGRPPRLPRPRPRPYCPPRP: Criterion not met
- RRIRFRPPRLPRPRPRPGGSPRP: Criterion not met
- RRIRWRPPRLPRPRPRPTRAPRP: Criterion met
- RRIRPRPPRLPRPRPRPPNQPRP: Criterion met
- RRIRGRPPRLPRPRPRPAYPPRP: Criterion not met
- RRIRHRPPRLPRPRPRPGCPPRP: Criterion not met
- RRIRSRPPRLPRPRPRPMCTPRP: Criterion not met
- RRIRERPPRLPRPRPRPYHLPRP: Criterion not met
- RRIRWRPPRLPRPRPRPMLNPRP: Criterion not met
- RRIRGRPPRLPRPRPRPCLVPRP: Criterion met
- RRIRNRPPRLPRPRPRPGPEPRP: Criterion met
- RRIRPRPPRLPRPRPRPSHKPRP: Criterion not met
- RRIRVRPPRLPRPRPRPCKIPRP: Criterion not met
- RRIRQRPPRLPRPRPRPFPQPRP: Criterion not met
- RRIRGRPPRLPRPRPRPERSPRP: Criterion met
- RRIRERPPRLPRPRPRPRGSPRP: Criterion met
- RRIRMRPPRLPRPRPRPPTSPRP: Criterion met
- RRIRSRPPRLPRPRPRPCHRPRP: Criterion not met
- RRIRHRPPRLPRPRPRPSAIPRP: Criterion not met
- RRIRDRPPRLPRPRPRPMQVPRP: Criterion not met
- RRIRTRPPRLPRPRPRPLVRPRP: Criterion met
- RRIRWRPPRLPRPRPRPGNAPRP: Criterion met
- RRIRARPPRLPRPRPRPGAFPRP: Criterion met
- RRIRVRPPRLPRPRPRPNEEPRP: Criterion not met
